test system: MCF-7 (human breast cancer) cell line; assay: In vitro cytotoxic activity, MTT assay, MCF-7 cell line; details: read-out: IC50 Values against MCF7; MTT assay, MCF7 cells, 24 h incubation with compound; three independent experiments, ± standard deviation
Some molecules, each annotated with its measured IC50.

{"MOLECULE": "CN1CCNC1=S.CN1CCNC1=S.N.N.O=[N+]([O-])[O-].O=[N+]([O-])[O-].[Pt+2] [Complex 2, trans-[Pt(NH3)2(MeImt)2]. 2NO3]", "IC50 (µM)": 70}
{"MOLECULE": "N.N.O=[N+]([O-])[O-].O=[N+]([O-])[O-].S=C1NCCCCN1.S=C1NCCCCN1.[Pt+2] [Complex 9, trans-[Pt(NH3)2(Diap)2]. 2NO3]", "IC50 (µM)": 69}
{"MOLECULE": "N.N.O=[N+]([O-])[O-].O=[N+]([O-])[O-].S=C1NCCN1.S=C1NCCN1.[Pt+2] [Complex 1, trans-[Pt(NH3)2(Imt)2]. 2NO3]", "IC50 (µM)": 80}

###

IC50 listing for selected molecules.
system: MCF-7 (human breast cancer) cell line; test: In vitro cytotoxic activity, MTT assay, MCF-7 cell line; settings: read-out: IC50 Values against MCF7; MTT assay, MCF7 cells, 24 h incubation with compound; three independent experiments, ± standard deviation

{"MOLECULE": "N.N.[Cl][Pt][Cl] [Cisplatin, cisplatin, reference compound]", "MEASURED TARGET": "MCF-7 (human breast cancer) cell line", "IC50": "23 µM"}
{"MOLECULE": "CC(C)N1CCN(C(C)C)C1=S.CC(C)N1CCN(C(C)C)C1=S.N.N.O=[N+]([O-])[O-].O=[N+]([O-])[O-].[Pt+2] [Complex 7, trans-[Pt(NH3)2(Pr2Imt)2].2 NO3]", "MEASURED TARGET": "MCF-7 (human breast cancer) cell line", "IC50": "87 µM"}
{"MOLECULE": "CC(C)N1CCNC1=S.CC(C)N1CCNC1=S.N.N.O=[N+]([O-])[O-].O=[N+]([O-])[O-].[Pt+2] [Complex 6, trans-[Pt(NH3)2(iPrImt)2]. 2NO3]", "MEASURED TARGET": "MCF-7 (human breast cancer) cell line", "IC50": "86 µM"}
{"MOLECULE": "CCN1CCN(CC)C1=S.CCN1CCN(CC)C1=S.N.N.O=[N+]([O-])[O-].O=[N+]([O-])[O-].[Pt+2] [Complex 4, trans-[Pt(NH3)2(Et2Imt)2]. 2NO3]", "MEASURED TARGET": "MCF-7 (human breast cancer) cell line", "IC50": "89 µM"}
{"MOLECULE": "N.N.O=C([O-])C1(C(=O)[O-])CCC1.[Pt+2] [Carboplatin, carboplatin, reference compound]", "MEASURED TARGET": "MCF-7 (human breast cancer) cell line", "IC50": "63 µM"}
{"MOLECULE": "CCN1CCCNC1=S.CCN1CCCNC1=S.N.N.O=[N+]([O-])[O-].O=[N+]([O-])[O-].[Pt+2] [Complex 8, trans-[Pt(NH3)2(EtDiaz)2]. 2NO3]", "MEASURED TARGET": "MCF-7 (human breast cancer) cell line", "IC50": "60 µM"}
{"MOLECULE": "CCCN1CCNC1=S.CCCN1CCNC1=S.N.N.O=[N+]([O-])[O-].O=[N+]([O-])[O-].[Pt+2] [Complex 5, trans-[Pt(NH3)2(PrImt)2]. 2NO3]", "MEASURED TARGET": "MCF-7 (human breast cancer) cell line", "IC50": "45 µM"}
{"MOLECULE": "CN1CCN(C)C1=S.CN1CCN(C)C1=S.N.N.O=[N+]([O-])[O-].O=[N+]([O-])[O-].[Pt+2] [Complex 3, trans-[Pt(NH3)2(Me2Imt)2]. 2NO3]", "MEASURED TARGET": "MCF-7 (human breast cancer) cell line", "IC50": "92 µM"}

// data source = patent US10172823B1
